# Test system: E. coli
# protocol.details: Mice infected with E. coli, CD50 (Tables I, II, IV)
# Type: in vivo
# experimental.setup: Escherichia coli, po; Table I; mice infected with E. coli; p.o.; R4 = sodium; read-out: CD50 (the source's name)
Hi there, I'd appreciate the recorded ED50 for every entry that follows.
One number for each entry, in mg/kg.

Some solved cases for reference:
molecule: O=S(=O)(CCCCl)N1N=Cc2ccccc2B1O
ED50 [mg/kg]: 22.7
//
molecule: C=CCS(=O)(=O)N1N=Cc2ccccc2B1O
ED50 [mg/kg]: 13.2

Here are 6 molecules. What values of ED50 were reported for them?
1. CCCS(=O)(=O)N1N=Cc2ccccc2B1O
2. CCS(=O)(=O)N1N=Cc2ccccc2B1O
3. CC(C)S(=O)(=O)N1N=Cc2ccccc2B1O
4. CC(Cl)S(=O)(=O)N1N=Cc2ccccc2B1O (centres unmarked)
5. O=S(=O)(CCl)N1N=Cc2ccccc2B1O
6. CCCCS(=O)(=O)N1N=Cc2ccccc2B1O

Response:
1: 7; 2: 11; 3: 12.5; 4: 17.7; 5: 12.4; 6: 11.2

----------
# Test system: Proteus mirabilis
# protocol.details: Minimum inhibitory concentration, Proteus mirabilis
# Type: cell-based
recorded.metric: MIC (µg/mL)
Answers are plain numbers, in µg/mL.

compound: CCCS(=O)(=O)N1N=Cc2cc(CC)ccc2B1O [CH2CH2CH3, C2 H5]
unit.label: µg/mL
MIC: 8
--
compound: CC(C)CS(=O)(=O)N1N=Cc2ccccc2B1O [drawing 4]
unit.label: µg/mL
MIC: 16
--
compound: CCCS(=O)(=O)N1N=Cc2ccccc2B1O [Compound 2]
unit.label: µg/mL
MIC: 32

Could you report MIC for every entry in the following list?
1. CCCS(=O)(=O)N1N=Cc2cc(F)ccc2B1O [Compound 11]
2. CCCCCS(=O)(=O)N1N=Cc2ccccc2B1O [(CH2)4CH3, H]
3. Cc1ccc2c(c1)C=NN(S(=O)(=O)CCCCl)B2O [Compound 10]
4. O=S(=O)(CCCCl)N1N=Cc2cc(F)ccc2B1O [CH2CH2CH2 Cl, F]
5. CCc1ccc2c(c1)C=NN(S(=O)(=O)CCCCl)B2O [CH2CH2CH2Cl, C2 H5]

Response:
1: 4; 2: 32; 3: 4; 4: 16; 5: 2

Request: Quick one: MIC of `Cc1ccc2c(c1)C=NN(S(=O)(=O)CC(C)C)B2O` ?
Response: 8

----------
# System: E. coli
# protocol.details: Minimum inhibitory concentration, E. coli
# Format: cell-based
# experimental.setup: Escherichia coli
Field 'label' (enum: 1 / 0). Set to 1 when MIC is strictly under 4 µg/mL; else 0.

The examples below pair each entry with its known result.
compound: CC(C)CS(=O)(=O)N1N=Cc2ccccc2B1O [drawing 4]
class.name: 0
--
compound: Cc1ccc2c(c1)C=NN(S(=O)(=O)CCCCl)B2O
class.name: 1

Request: Input `O=S(=O)(CCCCl)N1N=Cc2cc(F)ccc2B1O` ; condition: MIC strictly below 4 µg/mL. Does it hold?
Response: 0

Request: Now try `Cc1ccc2c(c1)C=NN(S(=O)(=O)CC(C)C)B2O` .
Response: 1

Request: Now the compound `CCCCCS(=O)(=O)N1N=Cc2ccccc2B1O`
Response: 0
